Assay: in vitro
Details: human, hela cells, % viability
property.name: viability at 28.5 h, 10 µM
Quick note: number first, unit second.

Worked cases, viability at 28.5 h, 10 µM given:
compound="CC(c1ncc(Br)cn1)N1CCN(Cc2noc(C(C)(C)C)n2)CC1 (centres unmarked) [CBK306168]" assay_value=87.4%
compound="Cc1cc2c(s1)c1cnn(CC(=O)NC3CC3)c(=O)c1n2C [CBK284246]" assay_value=90.5%
compound="COC(=O)Nc1ccc(S(=O)(=O)Oc2ccc(C)cc2-n2nc3ccccc3n2)cc1 [CBK262183]" assay_value=89.3%
compound="O=c1[nH]c2ccccc2n1CCCN1CCN(c2nccnc2Oc2ccc(F)cc2)CC1 [CBK083027T]" assay_value=88.2%
compound="c1ccc2oc([C@H]3CCN(C4CCOCC4)C3)nc2c1 [CBK289388]" assay_value=92.3%
compound="CC1(C)CC(=O)C2=C(C1)Nc1ccccc1N(C(=S)NCc1ccco1)C2c1cccnc1 (centres unmarked) [CBK267342]" assay_value=89.4%
compound="O=C(NC[C@H]1O[C@@H](CC(=O)N2CCCC2)[C@H](O)[C@@H]1O)c1cccc(F)c1 [CBK288908]" assay_value=88.3%

Would you kindly look at the next entry?
[in] Returns the measured viability at 28.5 h, 10 µM for the input compound. Input: c1cc2c3c(ccc(CSCCc4ccncc4)c3c1)CC2 [CBK261074G]
[out] 90.4%

====

Experiment: in vitro
Details: human, hela cells, % viability, bulk resorufin, single well
In plain terms, low viability at 28.5 h, 10 µM, meaning strictly below 90%, gives 1 (yes), and everything else gives 0 (no).

Observe how each entry below is paired with its result.
chemical_string=CCN1CCN(Cc2cc(Br)c(OC)cc2OC)CC1 assigned_class="0 (no)"
chemical_string=O=C(COc1ccc(C=C2C(=O)NC(=O)NC2=O)cc1)NCc1ccccc1 assigned_class="0 (no)"
chemical_string=O=C(NO)Nc1ccc(Cl)c(Cl)c1 assigned_class="0 (no)"
chemical_string=Cc1cccc(N2C(=O)/C(=C/c3ccccc3OCc3ccc(C(=O)O)cc3)C(=O)NC2=S)c1 assigned_class="0 (no)"
chemical_string=COc1ccc(-c2ccc3c(c2)OC2(CCNCC2)O3)c(OC)c1 assigned_class="0 (no)"

Lab note: next compound to report on.
[in] Report whether reported viability at 28.5 h, 10 µM is lower than 90% (strictly) for COC(=O)c1nn(Cc2ccc(OC)cc2)c2ccccc12
[out] 1 (yes)

====

We begin with a simple list: items and their reported viability at 28.5 h, 10 µM.
Assay: in vitro
Details: human, hela cells, % viability
Give just the numeric value; % need not be written.

molecule="COc1ccccc1CN(CCCn1ccnc1)Cc1ccoc1 [CBK283123]" assay_value=97.2
molecule="COc1ccc2c(-c3cc(N)sn3)c(C)oc2c1 [CBK022260]" assay_value=83.8
molecule="CC(=O)Nc1cccc(NC(=O)N2CCN(C3CCN(C)CC3)CC2)c1 [CBK155901]" assay_value=85.1
molecule="COCCCn1c(=O)[nH]c2ncc(-c3cccc(OC)c3)nc21 [CBK064519]" assay_value=108
molecule="CSCCCNC(=O)C1(c2ccccc2)CCCC1 [CBK149526]" assay_value=109
molecule="Cc1ccc(CSCCNS(=O)(=O)c2ccc([N+](=O)[O-])cc2)cc1 [CBK268496]" assay_value=108
molecule="C[C@@H]1CN2CCCC2CN1Cc1cc(F)ccc1F (stereo partly shown) [CBK285444]" assay_value=104
molecule="O=C(Nc1ccccc1-n1cnnn1)c1ccccc1Cl [CBK287994]" assay_value=95

[in] Returns the measured viability at 28.5 h, 10 µM for the input molecule. Input: CC(Sc1nc2ccc(F)cc2c(=O)[nH]1)C(=O)N1CCOCC1 (stereo not shown) [CBK305958]
[out] 108

[in] Returns the measured viability at 28.5 h, 10 µM for the input molecule. Input: O=C(c1cc(C(F)(F)F)cc(C(F)(F)F)c1)N1CCN(Cc2ccc3c(c2)OCO3)CC1 [CBK074756]
[out] 98.2

[in] Returns the measured viability at 28.5 h, 10 µM for the input molecule. Input: N#Cc1ccc(NCC(=O)Nc2ncn(Cc3cccnc3)n2)cc1 [CBK306343]
[out] 94.3
